Mean % Cell Survival for assorted molecules
Test system: non-senescent control A549 cells
Assay: Nuclei count senolytic assay, TIS model, non-senescent control cells
Assay type: cell-based, human
Conditions: log (dose) [M] -6.66; Control cells; mean

{"columns": ["MOLECULE", "VALUE UNIT", "Mean % Cell Survival"],
 "data": [
  ["CC(C)=CCc1c(O)cc2oc3cc(O)c(O)c(CC=C(C)C)c3c(=O)c2c1O", "%", 87.417],
  ["CO[C@H]1C[C@H](O[C@H]2CC[C@]3(C)[C@H]4CC[C@]5(C)[C@@H](C6=CC(=O)OC6)CC[C@]5(O)[C@@H]4CC[C@]3(O)C2)O[C@H](C)[C@H]1O[C@@H]1O[C@H](CO)[C@@H](O)[C@H](O)[C@H]1O", "%", 59.1283],
  ["Cc1c(NC(=O)OC[C@@H]2COCCN2)cn2ncnc(Nc3ccc4c(cnn4Cc4cccc(F)c4)c3)c12.Cl.Cl [BMS 599626 2HCL, BMS 599626 dihydrochloride]", "%", 104.478],
  ["C=Cc1c(C)c2cc3nc(cc4[nH]c(cc5nc(cc1[nH]2)C(C)=C5CCC(=O)O)c(CCC(=O)OC)c4C)[C@@]1(C)C3=CC=C(C(=O)OC)[C@H]1C(=O)OC [Verteporfin, verteporfin, reference compound]", "%", 101.194]
]}

* * *

Tested on: non-senescent control A549 cells
Test: Nuclei count senolytic assay, TIS model, non-senescent control cells
Type: cell-based, human
Conditions: Homo sapiens, A549; log (dose) [M] -7.66; Control cells; mean; read-out: Mean % Cell Survival
Description: We performed a second validation of the effectiveness of our machine learning models using a different stressor. We focused on therapy-induced senescence (TIS, Supplementary Fig. 6a), where human epithelial cancerous cells (A549) were induced to become senescent by addition of etoposide. Cells were treated with 100 μM etoposide for 48 h, followed by another three days of exposure to media in standard conditions. We performed experimental validation of the compounds with z-score > 8 (Fig. 2e). […]
VALUE KIND: viability at 0.0219 µM

{"columns": ["MOLECULE", "ASSAY RESULT"],
 "data": [
  ["CO[C@H]1C[C@@H]2CC[C@@H](C)[C@@](O)(O2)C(=O)C(=O)N2CCCC[C@H]2C(=O)O[C@H]([C@H](C)C[C@@H]2CC[C@@H](OP(C)(C)=O)[C@H](OC)C2)CC(=O)[C@H](C)/C=C(\\C)[C@@H](O)[C@@H](OC)C(=O)[C@H](C)C[C@H](C)/C=C/C=C/C=C/1C [Ridaforolimus, ridaforolimus, reference compound]", "74.4%"],
  ["Cc1cnc(C(=O)N[C@H]2CCCCC/C=C\\[C@@H]3C[C@@]3(C(=O)NS(=O)(=O)C3CC3)NC(=O)[C@@H]3C[C@@H](Oc4nc5ccccc5c5ccccc45)CN3C2=O)cn1 [Paritaprevir, paritaprevir, reference compound]", "95.5%"],
  ["O=c1cc(-c2ccc(O)cc2)oc2cc(O)c(O)c(O)c12 [Scutellarein, scutellarein]", "98.3%"],
  ["CC1(C)CCC(c2ccc(Cl)cc2)=C(CN2CCN(c3ccc(C(=O)NS(=O)(=O)c4ccc(N[C@H](CCN5CCOCC5)CSc5ccccc5)c(S(=O)(=O)C(F)(F)F)c4)cc3)CC2)C1 [navitoclax, reference compound]", "96.8%"]
]}

* * *

Listing: viability at 0.02188 µM of selected compounds
Test system: non-senescent control IMR90 ER:RAS cells
Assay: Nuclei count (Hoechst, high content imaging) senolytic assay, OIS model, non-senescent control cells
Assay type: cell-based, human
Conditions: Homo sapiens, IMR-90, 72 h, Control, log (dose) [M] -7.66, 72 h, mean n=3 (Fig 3C); read-out: Mean % Cell Survival
Counter-ions that a name gives are not always drawn.
VALUE KIND: viability at 0.02188 µM (%)

{"columns": ["COMPOUND", "VALUE UNIT", "ASSAY RESULT"],
 "data": [
  ["O=c1cc(-c2ccc(O)cc2)oc2cc(O)c(O)c(O)c12 [Scutellarein, scutellarein]", "%", 117],
  ["CC[C@]1(O)C[C@@H]2CN(CCc3c([nH]c4ccccc34)[C@@](C(=O)OC)(c3cc4c(cc3OC)N(C)[C@H]3[C@@](O)(C(=O)OC)[C@H](OC(C)=O)[C@]5(CC)C=CCN6CC[C@]43[C@@H]65)C2)C1 [Vinblastine sulfate, vinblastine sulfate, reference compound]", "%", 104],
  ["Cc1c(-c2c(F)cc(C(N)=O)c3[nH]c4c(c23)CC[C@H](C(C)(C)O)C4)cccc1-n1c(=O)c2cccc(F)c2n(C)c1=O [BMS 986142]", "%", 114],
  ["Cc1cnc(C(=O)N[C@H]2CCCCC/C=C\\[C@@H]3C[C@@]3(C(=O)NS(=O)(=O)C3CC3)NC(=O)[C@@H]3C[C@@H](Oc4nc5ccccc5c5ccccc45)CN3C2=O)cn1 [Paritaprevir, paritaprevir, reference compound]", "%", 88.3],
  ["CO[C@H]1C[C@@H]2CC[C@@H](C)[C@@](O)(O2)C(=O)C(=O)N2CCCC[C@H]2C(=O)O[C@H]([C@H](C)C[C@@H]2CC[C@@H](OP(C)(C)=O)[C@H](OC)C2)CC(=O)[C@H](C)/C=C(\\C)[C@@H](O)[C@@H](OC)C(=O)[C@H](C)C[C@H](C)/C=C/C=C/C=C/1C [Ridaforolimus, ridaforolimus, reference compound]", "%", 88.9]
]}

* * *

Test system: non-senescent control IMR90 ER:RAS cells
Assay: Nuclei count (Hoechst, high content imaging) senolytic assay, OIS model, non-senescent control cells
Assay type: cell-based, human
Details: Homo sapiens, IMR-90, Control; log (dose) [M] -5; read-out: % Cell Survival
Counter-ions that a name gives are not always drawn.

{"columns": ["COMPOUND", "TEST TARGET", "viability at 10 µM"],
 "data": [
  ["O=c1c(O)c(-c2ccc(O)cc2O)oc2cc(O)cc(O)c12", "non-senescent control IMR90 ER:RAS cells", "102%"],
  ["O=c1cc(-c2ccc(O)cc2)oc2cc(O)c(O)c(O)c12", "non-senescent control IMR90 ER:RAS cells", "112%"],
  ["O=c1oc2c(O)c(O)cc3c(=O)oc4c(O)c(O)cc1c4c23", "non-senescent control IMR90 ER:RAS cells", "133%"],
  ["Cc1cnc(C(=O)N[C@H]2CCCCC/C=C\\[C@@H]3C[C@@]3(C(=O)NS(=O)(=O)C3CC3)NC(=O)[C@@H]3C[C@@H](Oc4nc5ccccc5c5ccccc45)CN3C2=O)cn1 [Paritaprevir, paritaprevir, reference compound]", "non-senescent control IMR90 ER:RAS cells", "96%"],
  ["O=c1c(O)c(-c2ccc(O)cc2)oc2c(O)c(O)cc(O)c12", "non-senescent control IMR90 ER:RAS cells", "97.9%"],
  ["COC[C@H]1C[C@@H](c2nc(-c3ccc4c(c3)COc3cc5c(ccc6nc([C@@H]7CC[C@H](C)N7C(=O)[C@@H](NC(=O)OC)C(C)C)[nH]c65)cc3-4)c[nH]2)N(C(=O)[C@H](NC(=O)OC)c2ccccc2)C1 [Velpatasvir, velpatasvir, reference compound]", "non-senescent control IMR90 ER:RAS cells", "82.9%"],
  ["CC[C@]1(O)C[C@@H]2CN(CCc3c([nH]c4ccccc34)[C@@](C(=O)OC)(c3cc4c(cc3OC)N(C)[C@H]3[C@@](O)(C(=O)OC)[C@H](OC(C)=O)[C@]5(CC)C=CCN6CC[C@]43[C@@H]65)C2)C1 [Vinblastine sulfate, vinblastine sulfate, reference compound]", "non-senescent control IMR90 ER:RAS cells", "46.8%"]
]}

* * *

Tested on: non-senescent control IMR90 ER:RAS cells
Assay: Nuclei count (Hoechst, high content imaging) senolytic assay, OIS model, non-senescent control cells
Format: cell-based, human
Conditions: Homo sapiens, IMR-90, Control cells; log (dose) [M] -6.66; individual replicates; SUP FIG 4C; read-out: % Cell Survival
Just a reminder that ties go to no: only viability at 0.2188 µM strictly below 90% counts as yes.

{"columns": ["MOLECULE", "QUALITATIVE LABEL"],
 "data": [
  ["Cc1cnc(C(=O)N[C@H]2CCCCC/C=C\\[C@@H]3C[C@@]3(C(=O)NS(=O)(=O)C3CC3)NC(=O)[C@@H]3C[C@@H](Oc4nc5ccccc5c5ccccc45)CN3C2=O)cn1 [Paritaprevir, paritaprevir, reference compound]", "yes"],
  ["COc1cc(/C=C/C(=O)O[C@H]2CC[C@]34C[C@]35CC[C@]3(C)[C@@H]([C@H](C)CCC=C(C)C)CC[C@@]3(C)[C@@H]5CC[C@H]4C2(C)C)ccc1O", "no"],
  ["CO[C@H]1C[C@@H]2CC[C@@H](C)[C@@](O)(O2)C(=O)C(=O)N2CCCC[C@H]2C(=O)O[C@H]([C@H](C)C[C@@H]2CC[C@H](n3cnnn3)[C@H](OC)C2)CC(=O)[C@H](C)/C=C(\\C)[C@@H](O)[C@@H](OC)C(=O)[C@H](C)C[C@H](C)/C=C/C=C/C=C/1C [Zotarolimus, zotarolimus, reference compound]", "no"],
  ["CO[C@H]1C[C@@H]2CC[C@@H](C)[C@@](O)(O2)C(=O)C(=O)N2CCCC[C@H]2C(=O)O[C@H]([C@H](C)C[C@@H]2CC[C@@H](O)[C@H](OC)C2)CC(=O)[C@H](C)/C=C(\\C)[C@@H](O)[C@@H](OC)C(=O)[C@H](C)C[C@H](C)/C=C/C=C/C=C/1C [Rapamycin, rapamycin, reference compound]", "yes"],
  ["Cc1c(-c2c(F)cc(C(N)=O)c3[nH]c4c(c23)CC[C@H](C(C)(C)O)C4)cccc1-n1c(=O)c2cccc(F)c2n(C)c1=O", "no"]
]}
